- Tested on: PipSyn1
- assay.text: in vitro enzyme assay of amide formation from CoA-ester and amine, PipSyn1
- Assay type: biochemical, Piper nigrum
- condition.label: CoA-ester piperoyl-CoA, 100% = 2 nkat/mg PipSyn2 with piperoyl-CoA and piperidine, UV quantification

compound: C1CCNC1 [pyrrolidine]
target: PipSyn1
relative activity, piperoyl-CoA, %: 77
--
compound: NCC1CCNCC1 [4-aminomethylpiperidine]
target: PipSyn1
relative activity, piperoyl-CoA, %: 17
--
compound: CC(C)CN [isobutylamine]
target: PipSyn1
relative activity, piperoyl-CoA, %: 66
--
compound: C1CCNCC1 [piperidine]
target: PipSyn1
relative activity, piperoyl-CoA, %: 117
--
compound: COc1cc(CN)ccc1O [vanillylamine]
target: PipSyn1
relative activity, piperoyl-CoA, %: 2
--
compound: NCCCCCCCN [1,7-diaminoheptane]
target: PipSyn1
relative activity, piperoyl-CoA, %: 26
--
compound: NCCc1ccc(O)c(O)c1 [dopamine]
target: PipSyn1
relative activity, piperoyl-CoA, %: 2

---

- System: recombinant PipSyn2
- assay.text: in vitro enzyme assay of amide formation from CoA-ester and amine, PipSyn2
- Assay type: biochemical, Piper nigrum
- condition.label: PipSyn2; CoA-ester piperoyl-CoA; 100% = 2 nkat/mg PipSyn2 with piperidine; assay as Example 3; UV quantification
Answer not satisfied if relative activity, piperoyl-CoA is under 40%, and satisfied if it is 40% or more.

compound: CC(C)CN [isobutylamine]
target: recombinant PipSyn2
assigned.category: not satisfied
--
compound: C1CCNCC1 [piperidine]
target: recombinant PipSyn2
assigned.category: satisfied
--
compound: NCCCCCCCN [1,7-diaminoheptane]
target: recombinant PipSyn2
assigned.category: not satisfied
--
compound: C1CCNC1 [pyrrolidine]
target: recombinant PipSyn2
assigned.category: not satisfied
--
compound: NCC1CCNCC1 [4-aminomethylpiperidine]
target: recombinant PipSyn2
assigned.category: not satisfied

---

Listing of entries alongside the reported relative activity, benzoyl-CoA.
- System: PipSyn1
- assay.text: in vitro enzyme assay of amide formation from CoA-ester and amine, PipSyn1
- Format: biochemical, Piper nigrum
- condition.label: CoA-ester benzoyl-CoA, 100% = 2 nkat/mg PipSyn2 with piperoyl-CoA and piperidine, UV quantification
quantity.kind: relative activity, benzoyl-CoA (%)

mol: C1CCNCC1
data.value: 7
--
mol: CC(C)CN
data.value: 6
--
mol: NCCCCCCCN
data.value: 2
--
mol: C1CCNC1
data.value: 1
